biological target: sodium ion channel (Nav1.7) (Homo sapiens, UniProt Q15858); assay: Blocking effect against sodium ion channel (Nav1.7), IonFlux16 auto patch clamp, hNav1.7 HEK293 cells; conditions: peak current after 50 seconds treatment, eight concentrations
Sequence (Q15858 whole entry): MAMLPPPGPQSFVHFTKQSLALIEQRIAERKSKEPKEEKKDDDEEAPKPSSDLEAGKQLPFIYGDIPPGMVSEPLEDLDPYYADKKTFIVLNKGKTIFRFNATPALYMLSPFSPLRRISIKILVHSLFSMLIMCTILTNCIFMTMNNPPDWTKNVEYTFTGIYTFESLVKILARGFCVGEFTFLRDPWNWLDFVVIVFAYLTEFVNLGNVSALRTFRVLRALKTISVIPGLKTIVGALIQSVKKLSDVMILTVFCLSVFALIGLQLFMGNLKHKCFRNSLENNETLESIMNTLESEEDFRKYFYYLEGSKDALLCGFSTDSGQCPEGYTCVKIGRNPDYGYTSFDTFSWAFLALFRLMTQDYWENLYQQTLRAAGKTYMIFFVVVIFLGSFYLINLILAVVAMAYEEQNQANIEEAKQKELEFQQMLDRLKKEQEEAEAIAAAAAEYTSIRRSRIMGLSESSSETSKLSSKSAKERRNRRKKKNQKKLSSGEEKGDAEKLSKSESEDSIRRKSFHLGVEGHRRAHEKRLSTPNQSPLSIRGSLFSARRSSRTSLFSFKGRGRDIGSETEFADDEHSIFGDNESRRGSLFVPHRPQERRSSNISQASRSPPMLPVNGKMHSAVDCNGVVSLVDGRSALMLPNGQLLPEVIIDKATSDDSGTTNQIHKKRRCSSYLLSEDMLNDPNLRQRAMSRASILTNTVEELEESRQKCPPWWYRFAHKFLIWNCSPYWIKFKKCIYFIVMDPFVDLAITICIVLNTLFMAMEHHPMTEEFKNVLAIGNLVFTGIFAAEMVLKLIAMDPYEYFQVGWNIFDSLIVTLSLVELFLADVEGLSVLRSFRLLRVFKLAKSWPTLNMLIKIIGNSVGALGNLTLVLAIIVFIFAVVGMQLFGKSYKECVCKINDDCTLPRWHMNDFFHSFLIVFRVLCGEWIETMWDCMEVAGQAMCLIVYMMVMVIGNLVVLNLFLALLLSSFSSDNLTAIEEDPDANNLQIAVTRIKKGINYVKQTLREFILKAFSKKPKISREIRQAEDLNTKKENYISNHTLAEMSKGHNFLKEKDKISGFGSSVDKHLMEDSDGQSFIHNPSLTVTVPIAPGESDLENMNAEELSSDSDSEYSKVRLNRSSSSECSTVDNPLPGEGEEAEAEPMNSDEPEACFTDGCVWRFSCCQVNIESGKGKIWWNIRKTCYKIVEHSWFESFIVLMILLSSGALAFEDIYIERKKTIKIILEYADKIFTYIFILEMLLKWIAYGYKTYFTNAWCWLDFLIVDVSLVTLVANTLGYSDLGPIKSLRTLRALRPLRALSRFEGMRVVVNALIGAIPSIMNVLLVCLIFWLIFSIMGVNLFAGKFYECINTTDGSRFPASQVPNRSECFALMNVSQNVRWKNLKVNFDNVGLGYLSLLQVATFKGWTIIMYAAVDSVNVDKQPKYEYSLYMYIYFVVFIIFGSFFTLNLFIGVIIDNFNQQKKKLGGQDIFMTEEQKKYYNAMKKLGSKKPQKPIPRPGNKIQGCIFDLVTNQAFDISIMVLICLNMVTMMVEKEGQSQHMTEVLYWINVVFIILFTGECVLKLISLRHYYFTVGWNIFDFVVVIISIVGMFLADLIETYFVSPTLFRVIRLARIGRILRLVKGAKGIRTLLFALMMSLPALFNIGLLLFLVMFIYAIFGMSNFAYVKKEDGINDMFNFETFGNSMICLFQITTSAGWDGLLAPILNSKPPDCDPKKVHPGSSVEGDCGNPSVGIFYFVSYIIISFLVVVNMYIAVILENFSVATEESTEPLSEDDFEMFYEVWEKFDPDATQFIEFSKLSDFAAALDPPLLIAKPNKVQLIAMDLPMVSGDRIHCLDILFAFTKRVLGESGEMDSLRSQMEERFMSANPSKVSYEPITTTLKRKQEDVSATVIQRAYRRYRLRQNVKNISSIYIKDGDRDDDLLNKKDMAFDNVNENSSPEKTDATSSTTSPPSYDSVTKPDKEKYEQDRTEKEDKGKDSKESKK
measurement.type: IC50

Reference set, count: 6
Cn1nccc1-c1nc(-c2ccc(F)nc2F)ccc1Oc1ccc(S(=O)(=O)Nc2nccs2)cc1C#N ... > 100 nM
O=S(=O)(Nc1cscn1)c1cc(F)c(Oc2cnc(-c3ccc(F)c(F)c3)cc2-c2cccnc2)cc1F ... > 100 nM
N#Cc1cc(S(=O)(=O)Nc2nccs2)ccc1Oc1cnc(-c2ccccc2F)cc1-c1cccnc1 ... > 100 nM
N#Cc1cc(S(=O)(=O)Nc2nccs2)ccc1Oc1ccc(-c2cccnc2F)nc1-c1ccoc1 ... > 100 nM
Cn1cc(-c2cc(-c3ccoc3)c(Oc3ccc(S(=O)(=O)Nc4nccs4)cc3C#N)cn2)cn1 ... > 100 nM
N#Cc1cc(S(=O)(=O)Nc2nccs2)ccc1Oc1cnc(-c2cccnc2F)cc1-c1cccnc1 ... > 100 nM

// compound Cn1cc(-c2cc(-c3cnn(C)c3)c(Oc3ccc(S(=O)(=O)Nc4ncns4)cc3C#N)cn2)cn1 , assay sodium ion channel (Nav1.7) (Homo sapiens, UniProt Q15858), IC50 value: > 100 nM

---

target: sodium ion channel (Nav1.7) (Homo sapiens, UniProt Q15858); test: Blocking effect against sodium ion channel (Nav1.7), IonFlux16 auto patch clamp, hNav1.7 HEK293 cells; conditions: peak current after 50 seconds treatment, eight concentrations
pIC50: −log10 of the molar value.
Reported pIC50 values for the following molecules.

N#Cc1cc(S(=O)(=O)Nc2nccs2)ccc1Oc1ccc(-c2ccc(F)nc2)nc1-c1ccoc1 ... 7.00 to 7.29
O=S(=O)(Nc1nccs1)c1ccc(Oc2cnc(-c3ccoc3)cc2-c2ccoc2)c(F)c1 ... < 7.00

Looking up O=S(=O)(Nc1nccs1)c1ccc(C(O)c2ccc(-c3cccc(F)c3)cc2-c2ccoc2)cc1 (stereo not shown) , I found its pIC50 recorded as 7.00 to 7.29

Entry N#Cc1cc(S(=O)(=O)Nc2cscn2)ccc1Oc1cnc(-c2ccc(F)c(F)c2)cc1-c1cccnc1 ; pIC50 = < 7.00

---

# IC50 per entry
Biological target: sodium ion channel (Nav1.7) (Homo sapiens, UniProt Q15858)
Test: Blocking effect against sodium ion channel (Nav1.7), IonFlux16 auto patch clamp, hNav1.7 HEK293 cells
Settings: peak current after 50 seconds treatment, eight concentrations
Procedure: In order to measure the activities of the inventive compounds as antagonists, an experiment on a blocking effect against the sodium ion channel (Nav1.7) was carried out as follows. The hNav1.7 HEK293 cell line used was a cell line having a human sodium ion channel 1.7 gene (type IX voltage-gated sodium channel alpha subunit) in human embryonic kidney (HEK) 293 cells and was purchased from Millipore. […]

Cn1nccc1-c1cc(-c2ccsc2)ncc1Oc1ccc(S(=O)(=O)Nc2nccs2)cc1F ... 51 to 100 nM
O=S(=O)(Nc1cscn1)c1cc(Cl)c(Oc2cnc(-c3cccc(F)c3)cc2-c2ccnc(F)c2)cc1F ... > 100 nM
N#Cc1cc(S(=O)(=O)Nc2nccs2)ccc1Oc1ccc(-c2ccccc2F)nc1-c1ccoc1 ... 51 to 100 nM
N#Cc1cc(S(=O)(=O)Nc2nccs2)ccc1Oc1cnc(-c2ccccc2)cc1-c1ccncc1 ... > 100 nM
N#Cc1cc(S(=O)(=O)Nc2nccs2)ccc1Oc1cnc(-c2cccnc2F)cc1-c1ccoc1 ... 51 to 100 nM
Cn1nccc1-c1nc(-c2ccc(F)nc2)ccc1Oc1cc(F)c(S(=O)(=O)Nc2cscn2)cc1Cl ... > 100 nM
Cc1cc(-c2cc(-c3ccccc3)ncc2Oc2ccc(S(=O)(=O)Nc3nccs3)cc2C#N)c(C)s1 ... > 100 nM

From here, focus on the item given below.
Query N#Cc1cc(S(=O)(=O)Nc2nccs2)ccc1Oc1ccc(-c2ccncc2)nc1-c1ccoc1 yields IC50 of > 100 nM

---

Molecular target: sodium ion channel (Nav1.7) (Homo sapiens)
Assay: Blocking effect against sodium ion channel (Nav1.7), IonFlux16 auto patch clamp, hNav1.7 HEK293 cells
Conditions: peak current after 50 seconds treatment, eight concentrations
Protocol: In order to measure the activities of the inventive compounds as antagonists, an experiment on a blocking effect against the sodium ion channel (Nav1.7) was carried out as follows. The hNav1.7 HEK293 cell line used was a cell line having a human sodium ion channel 1.7 gene (type IX voltage-gated sodium channel alpha subunit) in human embryonic kidney (HEK) 293 cells and was purchased from Millipore. […]
pIC50: −log10 of the molar value.
measurement.type: pIC50

O=S(=O)(Nc1cscn1)c1cc(Cl)c(Oc2cnc(-c3ccc(F)c(F)c3)cc2-c2cccnc2)cc1F ... < 7.00
N#Cc1cc(S(=O)(=O)Nc2nccs2)ccc1Oc1cnc(-c2ccc(F)cc2)cc1-c1ccoc1 ... 7.00 to 7.29
Cn1cc(-c2nc(-c3cccnc3F)ccc2Oc2ccc(S(=O)(=O)Nc3nccs3)cc2C#N)cn1 ... < 7.00
O=S(=O)(Nc1nccs1)c1ccc(Oc2cnc(-c3ccoc3)cc2-c2ccoc2)cc1 ... < 7.00
O=S(=O)(Nc1cscn1)c1cc(Cl)c(Oc2ccc(-c3ccc(F)nc3F)nc2-c2ccoc2)cc1F ... < 7.00

Kindly note the recorded pIC50 for Cn1nccc1-c1nc(-c2ccc(F)nc2F)ccc1Oc1cc(F)c(S(=O)(=O)Nc2cscn2)cc1Cl , which is < 7.00

Documented pIC50 of N#Cc1cc(S(=O)(=O)Nc2nccs2)ccc1Oc1cnc(-c2cccc(F)c2)cc1-c1ccoc1 : > 7.30

---

Biological target: sodium ion channel (Nav1.7) (Homo sapiens)
Test: Blocking effect against sodium ion channel (Nav1.7), IonFlux16 auto patch clamp, hNav1.7 HEK293 cells
Conditions: peak current after 50 seconds treatment, eight concentrations
Protocol: In order to measure the activities of the inventive compounds as antagonists, an experiment on a blocking effect against the sodium ion channel (Nav1.7) was carried out as follows. The hNav1.7 HEK293 cell line used was a cell line having a human sodium ion channel 1.7 gene (type IX voltage-gated sodium channel alpha subunit) in human embryonic kidney (HEK) 293 cells and was purchased from Millipore. […]
measurement.type: IC50

Guide cases for IC50, answers given:
O=S(=O)(Nc1cscn1)c1cc(Cl)c(Oc2cnc(-c3cccc(F)c3)cc2-c2ccoc2)cc1F ... > 100 nM
O=S(=O)(Nc1cscn1)c1cc(Cl)c(Oc2cnc(-c3ccc(F)nc3F)cc2-c2ccoc2)cc1F ... > 100 nM
N#Cc1cc(S(=O)(=O)Nc2nccs2)ccc1Oc1cnc(-c2ccc(F)nc2)cc1-c1ccoc1 ... 51 to 100 nM

// sample O=S(=O)(Nc1nccs1)c1ccc(C(O)c2ccc(-c3ccc(F)nc3)cc2-c2ccoc2)cc1 (centres unmarked) , its IC50 was > 100 nM

Lab book: IC50 of Cn1nccc1-c1cc(Cl)ccc1C(O)c1ccc(S(=O)(=O)Nc2nccs2)cc1 (centres unmarked) noted as > 100 nM

Value of IC50 reported for the compound Cn1nccc1-c1cc(-c2ccccc2F)ncc1Oc1ccc(S(=O)(=O)Nc2nccs2)cc1C#N is > 100 nM

Recorded result, Cn1nccc1-c1nc(-c2ccnc(F)c2)ccc1Oc1ccc(S(=O)(=O)Nc2nccs2)cc1C#N , IC50: > 100 nM

Entry Cn1nccc1-c1nc(-c2cnoc2)ccc1Oc1ccc(S(=O)(=O)Nc2nccs2)cc1C#N — recorded IC50 = > 100 nM

---

molecular target: sodium ion channel (Nav1.7) (Homo sapiens); experiment: Blocking effect against sodium ion channel (Nav1.7), IonFlux16 auto patch clamp, hNav1.7 HEK293 cells; details: peak current after 50 seconds treatment, eight concentrations
measurement.type: IC50

Some solved cases for reference:
O=S(=O)(Nc1cscn1)c1cc(Cl)c(Oc2cnc(-c3ccnc(F)c3)cc2-c2cncnc2)cc1F [Example 77] ... > 100 nM
N#Cc1cc(S(=O)(=O)Nc2nccs2)ccc1Oc1ccc(-c2cccc(F)c2)nc1-c1ccoc1 [Example 110] ... < 50 nM
N#Cc1cc(S(=O)(=O)Nc2nccs2)ccc1Oc1ccc(-c2ccc(F)nc2F)nc1-c1ccoc1 [Example 127] ... 51 to 100 nM
N#Cc1cc(S(=O)(=O)Nc2cscn2)ccc1Oc1cnc(-c2ccc(F)c(F)c2)cc1-c1cn[nH]c1 [Example 91] ... > 100 nM
Cc1ccc(-c2cc(-c3ccccc3)ncc2Oc2ccc(S(=O)(=O)Nc3nccs3)cc2C#N)s1 [Example 42] ... > 100 nM
O=S(=O)(Nc1cscn1)c1cc(Cl)c(Oc2cnc(-c3cccc(F)c3)cc2-c2cccnc2)cc1F [Example 74] ... > 100 nM
N#Cc1cc(S(=O)(=O)Nc2nccs2)ccc1Oc1cnc(-c2ccccc2)cc1-c1csc(C2CC2)n1 [Example 43] ... > 100 nM
N#Cc1cc(S(=O)(=O)Nc2nccs2)ccc1Oc1cnc(-c2cncnc2)cc1-c1ccoc1 [Example 15] ... > 100 nM

Value of IC50 reported for the molecule Cn1cc(-c2nc(-c3cccc(F)c3)ccc2Oc2ccc(S(=O)(=O)Nc3nccs3)cc2C#N)cn1 [Example 122] is 51 to 100 nM

Recorded result, O=S(=O)(Nc1cscn1)c1cc(F)c(Oc2cnc(-c3cccc(F)c3)cc2-c2cncnc2)cc1F [Example 95] , IC50: > 100 nM

IC50 reading for N#Cc1cc(S(=O)(=O)Nc2nccs2)ccc1Oc1cnc(-c2cccc(F)c2)cc1-c1cccnc1 [Example 50] : < 50 nM

Measured IC50, Cn1nccc1-c1nc(-c2ccsc2)ccc1Oc1ccc(S(=O)(=O)Nc2nccs2)cc1C#N [Example 119] : 51 to 100 nM
